Can you tell me Kd for the items I'm about to list?
Tested on: CoREST complex
Assay: Chemoproteomic binding profiling, K562 cell extract, SAHA/ITF2357 probe matrix (Kd app)
Set-up: species or system human
Details: read-out: Kd^app ZMYM2

In: What value of measured Kd is listed for CC(=O)Nc1ccc(C(=O)Nc2ccccc2N)cc1 ?
Out: > 85 µM

In: What value of measured Kd is listed for Nc1ccccc1NC(=O)c1ccc(CNc2nccc(-c3cccnc3)n2)cc1 ?
Out: 124 µM

In: What value of measured Kd is listed for Nc1ccccc1NC(=O)c1ccc(CNC(=O)OCc2cccnc2)cc1 ?
Out: > 300 µM

* * *

Biological target: non-HDAC targets (e.g. BZW2, ISOC2, aldehyde dehydrogenases) (Homo sapiens, UniProt Q08209)
pKd: −log10 of the molar value.
experimental readout: pKd

In: What value of measured pKd is listed for CC(=O)Nc1ccc(C(=O)Nc2ccccc2N)cc1 [tacedinaline] ?
Out: < 4.07

In: What value of measured pKd is listed for CN(C)Cc1c(C(=O)NCCOc2ccc(C(=O)NO)cc2)oc2ccccc12 [PCI-24781] ?
Out: < 5.00

In: What value of measured pKd is listed for O=C(CCCCCN1C(=O)c2cccc3cccc(c23)C1=O)NO [scriptaid] ?
Out: < 5.00

In: What value of measured pKd is listed for CCCC(CCC)C(=O)O [valproate, valproic acid] ?
Out: < 5.00

In: What value of measured pKd is listed for Nc1ccccc1NC(=O)c1ccc(CNc2nccc(-c3cccnc3)n2)cc1 [Mocetinostat] ?
Out: < 3.57

In: What value of measured pKd is listed for Nc1ccccc1NC(=O)c1ccc(CNC(=O)OCc2cccnc2)cc1 [MS-275] ?
Out: < 3.52

In: What value of measured pKd is listed for O=C(CCCCCCC(=O)Nc1ccccc1)NO [SAHA, suberoylanilide hydroxamic acid] ?
Out: < 5.00

In: What value of measured pKd is listed for Nc1ccccc1NC(=O)CCCCCCC(=O)Nc1ccccc1 [BML-210] ?
Out: < 4.07

* * *

Can you tell me pKd for the items I'm about to list?
Test system: NuRD complex
Assay: Chemoproteomic binding profiling, K562 cell extract, SAHA/ITF2357 probe matrix (Kd app)
Parameters: species or system human
Details: protein MBD3; NuRD complex; read-out: Kd^app MBD3
pKd: −log10 of the molar value.

In: What value of measured pKd is listed for COc1ccc(Cn2ccc3ccc(C(=O)NO)cc32)cc1 [PCI-34051] ?
Out: < 4.22

In: What value of measured pKd is listed for Nc1ccccc1NC(=O)CCCCCCC(=O)Nc1ccccc1 [BML-210] ?
Out: 4.23

In: What value of measured pKd is listed for Cn1cc(C(=O)Cc2ccccc2)cc1C=CC(=O)NO [MC-1293] ?
Out: < 5.00

* * *

Tested on: CoREST complex
Assay: Chemoproteomic binding profiling, K562 cell extract, SAHA/ITF2357 probe matrix (Kd app)
Set-up: species or system human
Conditions: protein RCOR2; CoREST complex; read-out: Kd^app RCOR2
experimental readout: Kd

In: What value of measured Kd is listed for COc1ccc(Cn2ccc3ccc(C(=O)NO)cc32)cc1 [PCI-34051] ?
Out: > 59.7 µM

In: What value of measured Kd is listed for Cn1cc(C(=O)Cc2ccccc2)cc1C=CC(=O)NO [MC-1293] ?
Out: > 10 µM

In: What value of measured Kd is listed for CCCCOc1ccc(CC(=O)NO)cc1 [bufexamac] ?
Out: > 59.7 µM
